Test system: HepG2
method description: GSK_TCMDC: Percent inhibition of human HepG2 cell line. Test compounds present at 10uM.
Type: functional
Entries and their measured Inhibition follow.
assay metric: Inhibition (%)

* O=C(NCCN1CCOCC1)c1ccc(N2CCC(Oc3ccc4ccccc4c3)CC2)nc1 | 1
* CCOC(=O)N1CCN(CCCNc2c3ccccc3nc3ccccc23)CC1.Cl | 5
* COc1ccc2nccc([C@@H](O)CN3CCC(NC(=O)/C=C/c4ccc5cc(C)[nH]c5c4)CC3)c2c1 | 7
* CN(C)CCOc1cc(O)c2c(c1)OC(C)(C)C=C2c1cccs1 | 29
* Cc1ccc(C)c(NC(=O)NC2CCN(c3ccnc(Nc4ccc(F)cc4)n3)C2)c1 (configuration not stated) | 0
* COC(=O)C(=O)c1c(-c2ccccc2)c(-c2ccc(OC)c(OC)c2)c2c3cc(OC)c(OC)cc3ccn12 | 2
* CCNc1cc(C(=O)NC(Cc2ccccc2)C(O)CNC2CCSCC2)cc(N2CCCC2=O)c1 (configuration not stated) | 0
* CCOc1ccc2[nH]c(C)cc(=NN=Cc3ccccc3Cl)c2c1 | 11
* CS(=O)(=O)n1c(CN2CCN(c3ncc(C(F)(F)F)cc3Cl)CC2)nc2ccccc21 | 0
* CN1CCCC(CN2CCN(Cc3cccc(-c4ccc(-c5nc6ccccc6[nH]5)cc4)c3)CC2)C1.O=C(O)C(F)(F)F (configuration not stated) | 73
* CN1CCCN(Cc2cccc(-c3ccc(NC(=O)c4cccc(Cl)c4)cc3)c2)CC1.O=C(O)C(F)(F)F | 34
* Cc1cnc(NCC2CCCCC2)nc1NCC(=O)Nc1ccccc1.O=C(O)C(F)(F)F | 21
* Cc1n[nH]c2cc(F)c(-c3cc(OC[C@@H](N)Cc4ccccc4)cnc3-c3ccoc3)cc12.O=C(O)C(F)(F)F | 22
* Cc1ccc(NC(=O)Cc2noc(CC3CCCN3C(=O)N[C@@H](C)c3ccccc3)n2)cc1 (some centres not stated) | 1
* O=C(O)C(F)(F)F.O=C1COC2(CN1C1CCN(Cc3ccc(O)cc3Cl)C1)c1ccccc1-c1ccccc12 (configuration not stated) | 10
* Cl.c1ccc2ncc(CNCCCCCCCCNCc3cnc4ccccc4c3)cc2c1 | 8
* Fc1ccc2[nH]c(-c3cccc(-c4cccc(CNCC5CCCO5)c4)c3)nc2c1.O=C(O)C(F)(F)F (configuration not stated) | 40
* Cc1c(CC(=O)NCCC2CCN(CCCCCNC(=O)/C=C/c3ccc(Cl)c(Cl)c3)CC2)sc2ccc(Cl)cc12 | 59
* CC(=NNC(S)=NCCc1ccccc1)c1ccccn1 | 73
* COc1ccc(OCc2ccccn2)c(C2CCN(CCCCNC(=O)c3ccc(NC(=O)c4ccc(Cl)cc4)cc3)CC2)c1.Cl | 18
* COc1cccc(-c2csc(C(=O)NCC3CCN(Cc4ccc(C(C)C)cc4)C3)c2)c1.O=C(O)C(F)(F)F (configuration not stated) | 35
* COc1ccc(-c2ccc(NC(=O)c3ccc(Cl)cc3)cc2)cc1CN1CCN(C)CC1.O=C(O)C(F)(F)F | 36
* CCc1ccc(OCc2ccccc2C(=O)Nc2ccc3nc(C)cc(N)c3c2)cc1.Cl | 98
* Br.CCCOc1ccc(OCCCON2C(=N)N=C(N)NC2(C)C)cc1 | 59
* OC(CNCc1ccccc1OCc1ccccc1)c1cccc(C(F)(F)F)c1 (configuration not stated) | 12
* FC(F)(F)c1ccc2c(C=Cc3ccncc3)c[nH]c2c1 | 0
* COc1ccc2cc(C(=O)Nc3ccc4c(c3)CCN(C3CCC3)CC4)ccc2c1.O=C(O)C(F)(F)F | 34
* CCC(C)(C)c1ccc(OCCCC(=O)Nc2ccc(Cl)c([N+](=O)[O-])c2)c(C(C)(C)CC)c1 | 0
* Cc1cc(OCCCN2CCCCC2C)ccc1NC(=O)COc1ccc(Cl)cc1C(=O)c1cc(Cl)cc(C#N)c1 (configuration not stated) | 23
* COc1ccc(/C=C/C(=O)Nc2ccc(-c3ccncc3)cc2)cc1CCCN(C)C.O=C(O)/C=C\C(=O)O | 3
* CC(=O)Nc1cccc(CNc2cc(C)nc(Nc3ccc(C)cc3)n2)c1 | 18
* c1ccc(OCCCCN2CCCCC2)cc1 | 2
* Cc1ccc2c(c1)c(-c1ccccc1)c(-c1ccccc1)n2CC(O)CN1CCN(CC=Cc2ccccc2)CC1 (configuration not stated) | 0
* Cc1ccccc1-c1nc2c(CN3CCC(O)(c4ccccc4)CC3)c(O)ccc2[nH]1 | 27
* FC(F)(F)c1cccc(C=NNc2nc3ccccc3[nH]2)c1 | 1
* CN1Cc2cc(NC(=O)/C=C/c3ccccc3Cl)ccc2C(C)(C)C1.Cl | 12
* CCCCCN1CCCC1CNS(=O)(=O)c1cccc(C(=O)Nc2cccc(C#N)c2)c1.O=C(O)C(F)(F)F (configuration not stated) | 19

###

Entries and their measured Inhibition follow.
Tested on: HepG2
method description: GSK_TCMDC: Percent inhibition of human HepG2 cell line. Test compounds present at 10uM.
Assay type: functional
assay metric: Inhibition (%)

• CCCN(Cc1ccc(OCC)cc1)Cc1cc(=O)c2cc(Cl)ccc2[nH]1 = 47
• COc1ccc(C(=O)CCC(=O)N(CCSC(C)(C)C)Cc2ccc(-c3ccc(CNCCc4ccc(S(C)(=O)=O)cc4)cn3)cc2)cc1F.O=C(O)C(F)(F)F = 9
• O=C(Nc1nc(-c2ccccn2)cs1)c1ccc(Br)s1 = 40
• COc1cc(NC(=O)/C=C/c2cc(F)cc(F)c2F)cc(OCCN2CCCCC2)c1.O=C(O)C(=O)O = 10
• Cn1cccc1C(=O)C(=O)Nc1ccc(-c2ccc(-c3nc4cc(F)ccc4[nH]3)cc2)cc1 = 44
• O=C(/C=C/c1ccccc1Cl)Nc1ccc(Br)c(OCCN2CCN(CCN3CCCC3)CC2)c1.O=C(O)C(=O)O = 26
• O=C(NCc1ccccc1)c1nn(CCCN2CCC(N3CCCC3)CC2)cc1-c1ccc(Cl)c(Cl)c1 = 29
• CC1=C(C(=O)Nc2ccccc2)C(c2ccc([N+](=O)[O-])cc2)n2ncc(C(=O)Nc3ccccc3)c2N1 (stereo not given) = 9
• COc1ccc2nccc([C@@H](O)CN3CCC(NS(=O)(=O)c4cc5c(cc4Cl)SCC(=O)N5)CC3)c2c1.O=C(O)C(=O)O = 5
• Cc1ncccc1-c1cccc2c(NC(=O)Nc3ccc4nccc(N5CCN(C)CC5)c4c3)cccc12.Cl = 19
• COc1cccc(-c2cc(C(=O)NC3CCC(N4CCC(c5ccccc5C)CC4)CC3)[nH]n2)c1 (stereo not given) = 60
• CCOC(=O)C(C#N)NC(=O)C=Cc1ccccc1 (stereo not given) = 0
• Cc1ccc(NC(=O)NCCCCCN2CCC(c3c[nH]c4ccccc34)CC2)cc1I = 96
• OC(COCc1ccc(-c2ccccc2)cc1)CN1CCCCC1 (stereo not given) = 13
• COc1cc(OC)c(NC(=O)COc2ccc(C)cc2)cc1Cl = 0
• CCNc1cc(C)nc(Nc2ccc(NS(=O)(=O)c3ccccc3)cc2)n1 = 41
• Br.COc1ccc(OCCCON2C(=N)N=C(N)NC2(C)C)cc1 = 55
• Cn1ccc2c3c(N)nc(N)nc3ccc21 = 59
• CCS[C@@H]1O[C@H](COC(=O)c2ccccc2)[C@H](OC(=O)c2ccccc2)[C@H](OC(=O)c2ccccc2)[C@H]1OC(=O)c1ccccc1 = 4
• COc1ccc(C=NN=c2cc(C)[nH]c3c(C)cccc23)c2ccccc12 = 3

###

System: Plasmodium falciparum
method description: GSK_TCMDC: Inhibition of Plasmodium falciparum Dd2 in whole red blood cells, using parasite LDH activity as an index of growth. Test compounds present at 2uM
Format: functional
Ranges used to classify Inhibition: low (below 50%), intermediate (50% to below 90%), high (90% or more)

* Cl.Oc1c(CNC2CCCCC2)cc(Cl)c2ccccc12 | high
* O=C(Nc1cccc(CN2CCCN(Cc3ncc[nH]3)CC2)c1)c1cc2ccccc2s1.O=C(O)C(F)(F)F | low
* Cc1c(-c2cccc(CNCCc3ccc(Cl)cc3)c2)cnc(N)c1C.Cl | low
* CC(C)(C)OC(=O)NCc1ccc(Nc2nnc(-c3ccc(OCC(=O)NC[C@@H]4CC[C@H]5C[C@@H]4C5(C)C)c([N+](=O)[O-])c3)o2)cc1 | intermediate
* O=C(NCc1ccc(Cl)cc1)c1ccc(C(=O)NCC2CCCN2CC2CCCCC2)cc1.O=C(O)C(F)(F)F (configuration not stated) | low
* COC(=O)c1cccc(CNCc2cccc(-c3ccc(-c4nc5cccc(C)c5[nH]4)s3)c2)c1.O=C(O)C(F)(F)F | intermediate
* CC(=O)Oc1c(Br)c(C)nc(C)c1-c1ccc(Oc2ccc(OC(F)(F)F)cc2)cc1 | high
* COc1ccc(N2C(N)=NC(N)=NC2(C)C)cc1OC.Cl | low
* c1ccn2c(Sc3ncnc4sccc34)ncc2c1 | high
* CC(=O)Nc1ccc(CN2CCN(C(c3ccc(F)cc3)c3ccc(F)cc3)CC2)cc1 | intermediate
* COCCCNC(=N)c1ccc(NC(=O)c2ccc(C(=O)Nc3ccc(C(=N)NCCCOC)cc3)cc2)cc1.Cl | high
* CC(C)(C)c1ccc(NC(=O)c2cccc(CN3CCCN(Cc4cccc(O)c4)CC3)c2)cc1.O=C(O)C(F)(F)F | intermediate
* Cc1cccc(-c2nc3cc(NC(=O)c4ccc([N+](=O)[O-])o4)ccc3o2)c1 | intermediate
* COc1ccc2ncc(C)c(CCN3CCC(NCc4ccc5c(n4)NC(=O)CS5)CC3)c2c1.Cl | intermediate
* O=C(N[C@@H](Cc1ccccc1)C(=O)NC1CCCCC1)c1ccc(O)c(-c2ccc(Cl)c(Cl)c2)c1 | high
* Fc1ccc2[nH]c(-c3ccc(-c4ccc(CNCCN5CCNCC5)cc4)s3)nc2c1.O=C(O)C(F)(F)F | low
* Nc1nc(N)c2c(ccc3c2ccn3Cc2ccc3c(c2)OCO3)n1 | high
* Br.CCCCCCCNCCNc1cc(C)nc2ccccc12 | high
* CCCCCC(=O)NCC(NCCCNc1cc(=O)c2ccccc2[nH]1)c1cc(Br)cc(Br)c1 (configuration not stated) | intermediate
* CC(C)CCN(Cc1cncn1Cc1cccc(Cl)c1)C(=O)c1cncc(-c2ccccc2)c1 | low
* CC(Sc1nnc(-c2cccs2)[nH]1)C(=O)c1c[nH]c2ccccc12 (configuration not stated) | intermediate
* CN1CCc2ccc(NC(=O)Nc3cccc([N+](=O)[O-])c3)cc2C1 | low
* Cc1cc(N2CCCC2)nc(Nc2ccc(NC(=O)C(C)Oc3ccccc3)cc2)n1 (configuration not stated) | intermediate
* Cc1cc(-c2ccc(NC(=O)c3coc4ccc(N5CC(C)N(C)C(C)C5)cc34)cc2C)cc(C)n1.Cl (configuration not stated) | intermediate
* COc1ccc2ncc(F)c(CCN3CCC(NCc4cc(Br)c5c(c4)OCCO5)CC3)c2n1.Cl | high
* O=C(Nc1cccc(-c2ccc(-c3nc4cc(C(F)(F)F)ccc4[nH]3)cc2)c1)c1c[nH]cn1 | low
* O=C(Nc1cccc(-c2nn3ncccc3c2-c2ccnc(Nc3cccc(-c4cnco4)c3)n2)c1)c1c(F)cccc1F | high
* CN(C)CCOc1ccc(-c2cc(-c3ccncc3)c(-c3ccc(Cl)c(O)c3)[nH]2)cc1.Cl | high
* Cc1cc(C)c(O)c(-c2cc(C(=O)Nc3ccc(S(=O)(=O)N4CC(C)OC(C)C4)cc3)[nH]n2)c1 (configuration not stated) | low
* CCCCn1c(SC(C)C)nc2c(c1=O)C1(CCCCC1)Cc1ccccc1-2 | intermediate
* O=C(Nc1ccc(Cl)cc1F)NC1CCN(CCCCCNC(=O)C2CC2c2ccc(Cl)c(Cl)c2)CC1 (configuration not stated) | low
* CCCCN(Cc1cc(Cl)c(OC)c(OC)c1)c1ccc(C(O)(C(F)(F)F)C(F)(F)F)cc1.O=C(O)C(F)(F)F | intermediate
* Cc1c(CCC#N)c(NCc2ccccc2)n2c(nc3ccccc32)c1C#N | high
* CN1CCN(Cc2cc3cc(NC(=O)/C=C/c4cccc(Cl)c4)ccc3s2)CC1.Cl | intermediate
